// reported IC50 per item
# Tested on: SW1088 (human)
# assay details: In vitro inhibition of SW1088 (human astrocytoma) cell growth.

These recorded examples may help you get a feel for the data.
chem smiles | recorded endpoint | data value
O=C1c2nccc(Cl)c2C(=O)c2c(-c3ccccc3NC(=O)C(F)(F)F)ccnc21 | IC50 | 3.8 µM
COc1ccnc2c1C(=O)c1c(-c3ccccc3[N+](=O)[O-])ccnc1C2=O | IC50 | 3.9 µM
O=C1c2nccc(-c3ccccc3NC(=O)C(F)(F)F)c2C(=O)c2c([N+](=O)[O-])ccnc21 | IC50 | 6 µM

Exercise: Report IC50, nothing else, for this compound: `O=C1c2nccc(Cl)c2-c2nc3ccccc3c3ccnc1c23`
Key: 4.3 µM

Exercise: # return recorded IC50 for entry `O=C1c2nccc(O)c2C(=O)c2c(-c3ccccc3[N+](=O)[O-])ccnc21`
Key: 2.9 µM

Exercise: Check the records and state IC50 for `O=C1c2nccc([N+](=O)[O-])c2-c2nc3ccccc3c3ccnc1c23`
Key: 5.5 µM
